tgt: human α1B-adrenoceptor (Homo sapiens)
Construct: CHO cells stably expressing either the full‐length human α1A, α1B, or α1D‐adrenoceptor
Sequence (P35368 whole entry): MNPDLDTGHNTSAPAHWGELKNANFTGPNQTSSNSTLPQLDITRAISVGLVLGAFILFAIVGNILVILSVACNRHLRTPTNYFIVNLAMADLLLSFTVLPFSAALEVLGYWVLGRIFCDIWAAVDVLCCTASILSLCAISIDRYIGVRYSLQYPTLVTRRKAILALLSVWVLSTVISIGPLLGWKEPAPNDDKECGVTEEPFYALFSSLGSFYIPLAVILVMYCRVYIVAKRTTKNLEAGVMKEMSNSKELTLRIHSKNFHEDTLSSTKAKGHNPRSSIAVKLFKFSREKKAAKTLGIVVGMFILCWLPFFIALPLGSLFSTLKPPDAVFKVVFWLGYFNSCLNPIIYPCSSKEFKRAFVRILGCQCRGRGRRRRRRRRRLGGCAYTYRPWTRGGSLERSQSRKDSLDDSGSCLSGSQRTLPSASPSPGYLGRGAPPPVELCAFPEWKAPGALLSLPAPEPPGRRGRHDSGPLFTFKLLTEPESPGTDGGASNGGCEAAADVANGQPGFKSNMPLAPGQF
experiment: [3H]prazosin whole-cell competition binding, CHO-α1B cells
selectivity α1B vs α1D for assorted compounds
reportedEndpoint: selectivity α1B vs α1D

INSERT INTO measurements (compound, valuemeasured) VALUES
  ('CN1CCc2cccc(Cl)c2CC1', 1.7),
  ('Cc1nc2n(c(=O)c1CCN1CCC(c3noc4cc(F)ccc34)CC1)CCCC2O (stereo not shown)', 1.3),
  ('COc1ccccc1N1CCN(CCCNc2c(C)c(=O)n(C)c(=O)n2C)CC1', 2.8),
  ('CN[C@H]1CC[C@@H](c2ccc(Cl)c(Cl)c2)c2ccccc21', 1.4);
